Molecular target: yeast 20S proteasome β1 subunit (caspase-like) (Saccharomyces cerevisiae)
Construct: purified yeast 20S proteasome core particle (yCP); with other subunits of the yeast 20S proteasome core particle (α1–7β1–7β1–7α1–7)
Sequence (P38624 20-215): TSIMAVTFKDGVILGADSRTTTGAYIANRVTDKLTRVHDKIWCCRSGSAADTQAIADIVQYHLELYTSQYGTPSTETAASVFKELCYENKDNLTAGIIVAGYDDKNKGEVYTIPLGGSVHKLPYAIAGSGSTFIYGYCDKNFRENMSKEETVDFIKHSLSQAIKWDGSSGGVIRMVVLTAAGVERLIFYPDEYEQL
Assay: X-ray crystal structure ([…] soak; ligand map diffuse at β[…]); fluorogenic inhibition assay with purified yCP

[
  {
    "SMILES RECORD": "CC(C)[C@@H]1C(=O)O[C@H]1C(=O)O",
    "IC50": "625 µM"
  }
]

Origin of values: paper PMC9177418
